Test system: MPR1-MDCK
run.description: MPR1-MDCK permeability, potential to cross the blood-brain barrier
Assay type: in vitro ADME
condition.summary: B-A direction
recorded.metric: % Recovery B-A (%)

{"compound": "FC(F)(F)c1ccc2c(c1)N(CCCN1CCNCC1)c1ccccc1S2 [ICI-00685]", "quantitative.result": 15}
{"compound": "CNCC(=O)NCCCN1CCN(CCCN2c3ccccc3Sc3ccc(C(F)(F)F)cc32)CC1 [ICI-00823]", "quantitative.result": 46}
{"compound": "FC(F)(F)c1ccc2c(c1)N(CCCC1CCNCC1)c1ccccc1S2 [ICI-00824]", "quantitative.result": 21}
{"compound": "CNCC(=O)NCCN1CCN(CCCN2c3ccccc3Sc3ccc(C(F)(F)F)cc32)CC1 [ICI-00758]", "quantitative.result": 41}
{"compound": "CN(C)S(=O)(=O)c1ccc2c(c1)N(CCCN1CCN(CCN)CC1)c1ccccc1S2 [ICI-00715]", "quantitative.result": 77}
{"compound": "N#Cc1ccc2c(c1)N(CCCN1CCN(CCN)CC1)c1ccccc1S2 [ICI-00894]", "quantitative.result": 56}
{"compound": "NCC(=O)NCCCN1CCC(CCCN2c3ccccc3Sc3ccc(C(F)(F)F)cc32)CC1 [ICI-01260]", "quantitative.result": 47}
{"compound": "NCCCN1CCN(CCCN2c3ccccc3Sc3ccc(C(F)(F)F)cc32)CC1 [ICI-00760]", "quantitative.result": 40}
{"compound": "CN(C)CCCN1CCC(CCCN2c3ccccc3Sc3ccc(C(F)(F)F)cc32)CC1 [ICI-01505]", "quantitative.result": 26}
